pIC50: −log10 of the molar value.
Consider the following pIC50 data for Tyrosine-protein kinase Lyn (Homo sapiens, UniProt P07948), collected from several reports.

Worked examples, 3 compounds total:
# compound, experimentalTarget, dataValue
measured = [
    ("CN(C)C/C=C/C(=O)Nc1cccc(-n2nc(-c3ccc(Cl)cc3)c3c(N)ncnc32)c1", "Tyrosine-protein kinase Lyn (Homo sapiens, UniProt P07948)", "6.00 to 7.00"),
    ("COc1cc(-c2nn(-c3ccc(N(C)C(=O)/C=C/CN(C)C)cc3)c3ncnc(N)c23)ccc1C", "Tyrosine-protein kinase Lyn (Homo sapiens, UniProt P07948)", "> 7.00"),
    ("COc1cc(Nc2ncnc(N3CCc4cc([N+](=O)[O-])ccc43)n2)cc(OC)c1OC", "Tyrosine-protein kinase Lyn (Homo sapiens, UniProt P07948)", "< 4.97"),
]

Next compound, pIC50 to be filled in.
Prompt: What reported pIC50 corresponds to COCc1cccc2[nH]c(-c3nn(C)c4ncc(-c5cncc6ccccc56)cc34)nc12 on Tyrosine-protein kinase Lyn (Homo sapiens, UniProt P07948)?
Completion: 5.94
